- measuredOn: VHL Elongin B/C complex (Homo sapiens (Human))
- testName: Fluorescence Polarization (FP) VHL Binding Assay
- testConditions: VHL binding, FP assay; geometric mean where more than one measurement
The following molecules are shown together with reported IC50 values.

Use these answered entries as a reference point.
# molecule, measuredOn, IC50
records = [
    ("Cc1cc(C(C(=O)N2C[C@H](O)CC2C2=NC(=O)C(C)(c3ccc(Br)cc3)N2)C(C)C)on1 (single isomer, unassigned) [Example 103.1]", "VHL Elongin B/C complex (Homo sapiens (Human))", "> 400 µM"),
    ("Cc1cc([C@@H](C(=O)N2C[C@H](O)C[C@H]2C2=NOC(c3ccc(Br)cc3)(C(F)(F)F)N2)C(C)C)on1 (single isomer, unassigned) [Example 133.1]", "VHL Elongin B/C complex (Homo sapiens (Human))", "≥ 400 µM"),
]

query: Bench note: what IC50 did CC(=O)N[C@H](C(=O)N1C[C@H](O)CC1C1=NC(=O)C(C)(c2ccc(-c3scnc3C)cc2)N1)C(C)(C)C (single isomer, unassigned) [Example 102.2] show?
result: 93.1 µM

query: I would be grateful if you could share the reported IC50 for CC(=O)N1CCCCC1C(=O)N1C[C@H](O)CC1C1=NC(=O)[C@](C)(c2ccc(-c3scnc3C)cc2)N1 (single isomer, unassigned) [Example 124.3] .
result: ≥ 400 µM

query: Name the reported IC50 value associated with the molecule Cc1cc([C@@H](C(=O)N2C[C@H](O)C[C@H]2C2=NOC(c3ccc(Br)cc3)(C(F)(F)F)N2)C(C)C)on1 (single isomer, unassigned) [Example 133.2]
result: ≥ 400 µM

* * *

Examples of molecules with documented Kd follow.
- measuredOn: VHL co-expressed with Elongins B and C (Homo sapiens (Human), UniProt P40337)
- testName: Surface Plasmon Resonance Assay
- Format: binding
- testConditions: SPR measured VHL affinity; geometric mean where more than one measurement

query: Entry under review: Cc1ncsc1-c1ccc([C@]2(C)NC(C3C[C@@H](O)CN3C(=O)C(c3cc(O)no3)C(C)C)=NC2=O)cc1 (single isomer, unassigned) [Example 116.1] . Reported Kd?
result: 5.1 µM

query: Query (molecule): Cc1cc(C(C(=O)N2C[C@H](O)CC2C2=NC(=O)C(C)(C)N2)C(C)C)on1 (single isomer, unassigned) [Example 107.1] ; field requested: Kd
result: > 150 µM

query: Quick check: Kd of Cc1cc(C(C(=O)N2C[C@H](O)CC2C2=NC(=O)C(C)(c3ccc(-c4cccnc4C)cc3)N2)C(C)C)on1 (single isomer, unassigned) [Example 106.2] ?
result: > 150 µM

query: Form field: reported Kd of Cc1cc(C(C(=O)N2C[C@H](O)CC2C2=NC(=O)C(C)(c3ccc(-c4cccnc4C)cc3)N2)C(C)C)on1 (single isomer, unassigned) [Example 106.3]
result: > 150 µM

* * *

- measuredOn: VHL Elongin B/C complex (Homo sapiens (Human), UniProt P40337)
- Sequence (P40337 whole entry, looked up): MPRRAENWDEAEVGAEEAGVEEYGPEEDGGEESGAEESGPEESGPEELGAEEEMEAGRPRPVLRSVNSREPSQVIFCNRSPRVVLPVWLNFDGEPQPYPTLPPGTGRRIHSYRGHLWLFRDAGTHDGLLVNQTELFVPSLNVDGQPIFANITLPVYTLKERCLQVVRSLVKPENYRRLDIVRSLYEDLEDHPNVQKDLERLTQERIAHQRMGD
- Sequence (Q15370 whole entry partner, looked up): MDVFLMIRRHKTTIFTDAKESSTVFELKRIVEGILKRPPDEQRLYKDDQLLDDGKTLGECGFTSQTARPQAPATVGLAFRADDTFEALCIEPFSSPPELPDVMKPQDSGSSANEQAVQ
- Sequence (Q15369 whole entry partner, looked up): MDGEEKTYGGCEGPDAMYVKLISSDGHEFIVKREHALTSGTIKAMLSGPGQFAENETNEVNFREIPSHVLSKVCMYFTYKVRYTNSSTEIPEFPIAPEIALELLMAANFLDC
- testName: Fluorescence Polarization (FP) VHL Binding Assay
- testConditions: VHL binding, FP assay; geometric mean where more than one measurement
parameterMeasured: IC50 (µM)

# compound, IC50 [µM]
records = [
    ("Cc1cc([C@H](C(=O)N2C[C@H](O)C[C@H]2C2=NOC(C)(c3ccccc3)N2)C(C)C)on1 (single isomer, unassigned) [Example 128.3]", 33.6),
    ("Cc1cc([C@@H](C(=O)N2C[C@H](O)C[C@H]2C2=NO[C@](C)(c3ccc(Br)cc3)N2)C(C)C)on1 (mixture of isomers)", 400),
]

P = Cc1cc([C@H](C(=O)N2C[C@H](O)C[C@H]2C2=NOC(c3ccc(Br)cc3)(C(F)(F)F)N2)C(C)C)on1 (single isomer, unassigned) [Example 133.4]
Q = Cc1ncsc1-c1ccc([C@]2(C)NC(C3C[C@@H](O)CN3C(=O)C(c3cnn(C)c3)C(C)C)=NC2=O)cc1 (single isomer, unassigned) [Example 110.1]
R = Cc1cc(C(C(=O)N2C[C@H](O)CC2C2=NC(=O)C(C)(c3ccc(-c4cccnc4C)cc3)N2)C(C)C)on1 (single isomer, unassigned) [Example 106.4]
S = Cc1cc(C(C(=O)N2C[C@H](O)CC2C2=NC(=O)C(C)(c3ccc(-c4scnc4C)cc3)N2)C(C)C)on1 (single isomer, unassigned) [Example 104.4]
T = Cc1ncsc1-c1ccc([C@]2(C)NC(C3C[C@@H](O)CN3C(=O)C(c3cc(O)no3)C(C)C)=NC2=O)cc1 (single isomer, unassigned) [Example 116.1]
query: Would you mind ranking these compounds by ascending IC50? Reply with the labels, ordered as the question asks.
result: S, R, T, Q, P
